details: 298.15 K; 101 kPa
# reported log10(viscosity); entries follow
# values: log10(viscosity), units mPa·s

Study these solved cases before continuing.
compound: CC(N)CN (configuration not stated)
measured: 0.17
//
compound: CC(C)OC(C)C
measured: -0.50
//
compound: C1COCO1
measured: -0.23

So what's the measured log10(viscosity) for this one? CCC(O)CC
0.68

Here is the next compound: Cc1cccc(C)n1
-0.06

Here is the next compound: O=S(Cl)Cl
-0.21

Here is the next compound: ClC(Cl)C(Cl)(Cl)Cl
0.35

----------
details: 298.15 K; 101.33 kPa
± gives the uncertainty stated by the source.
metric: viscosity

Study these solved cases before continuing.
molecule: CCCOCCC
metric: viscosity
measured: 0.4024 ± 0.0044 mPa·s
--
molecule: Cc1cccc(C)n1
metric: viscosity
measured: 0.7813 ± 0.0063 mPa·s
--
molecule: CCC(C)C(C)C (stereo not given)
metric: viscosity
measured: 0.3898 ± 0.0037 mPa·s
--
molecule: CCCOCC(C)O (stereo not given)
metric: viscosity
measured: 2.389 ± 0.036 mPa·s

Turning now to a further molecule:
So what's the measured viscosity for this one? CC(C)OC(C)C
0.322 ± 0.02 mPa·s

----------
details: 308.15 K; 101 kPa
metric: viscosity (mPa·s)
# output: bare number, implied unit mPa·s

mol.smiles: CC[NH2+]CC.O=S(=O)([O-])O
result.units: mPa·s
viscosity: 24.6
--
mol.smiles: CCN(CCO)CCO
result.units: mPa·s
viscosity: 36.72
--
mol.smiles: CCC(O)CC
result.units: mPa·s
viscosity: 2.773

Turning now to a further compound:
So what's the measured viscosity for this one? C#CCO
1.214

----------
assay.info: xn = mol fraction of the nth substance listed
details: 303.15 K; 101 kPa; x1 = 0.9001
# reported viscosity; entries follow
# output: bare number, implied unit mPa·s

So what's the measured viscosity for this one? CCC(O)CC + Cc1ccccc1
2.12

Here is the next compound: C1COCO1 + CC(C)(C)O
0.566

Here is the next compound: C1COCO1 + CCCCO
0.5873

Here is the next compound: C1COCO1 + CCC(C)O
0.5588

----------
details: 303.15 K; 101 kPa
# reported log10 viscosity; entries follow
# values: log10(viscosity), units mPa·s

Study these solved cases before continuing.
mol.smiles: C#CCO
log10 viscosity: 0.13
//
mol.smiles: CC[NH2+]CC.O=S(=O)([O-])O
log10 viscosity: 1.46
//
mol.smiles: CCCCCCCCC
log10 viscosity: -0.19
//
mol.smiles: CCC(O)CC
log10 viscosity: 0.54
//
mol.smiles: CCN(CCO)CCO
log10 viscosity: 1.68

So what's the measured log10 viscosity for this one? ClC(Cl)C(Cl)(Cl)Cl
0.29

Here is the next compound: C1COCO1
-0.21

----------
details: 323.15 K; 101 kPa
# reported viscosity; entries follow
# output: bare number, implied unit mPa·s

compound: C#CCO
viscosity [mPa·s]: 0.9277

compound: CCCCCCCCC
viscosity [mPa·s]: 0.5073

compound: CC(N)CN (stereo unspecified)
viscosity [mPa·s]: 0.9091

So what's the measured viscosity for this one? CCN(CCO)CCO
17.78

Here is the next compound: CC(=O)c1ccccc1
1.051

Here is the next compound: CCC(O)CC
1.528
